experimentalTarget: Androgen receptor (Homo sapiens, UniProt P10275)
Sequence (P10275 whole entry): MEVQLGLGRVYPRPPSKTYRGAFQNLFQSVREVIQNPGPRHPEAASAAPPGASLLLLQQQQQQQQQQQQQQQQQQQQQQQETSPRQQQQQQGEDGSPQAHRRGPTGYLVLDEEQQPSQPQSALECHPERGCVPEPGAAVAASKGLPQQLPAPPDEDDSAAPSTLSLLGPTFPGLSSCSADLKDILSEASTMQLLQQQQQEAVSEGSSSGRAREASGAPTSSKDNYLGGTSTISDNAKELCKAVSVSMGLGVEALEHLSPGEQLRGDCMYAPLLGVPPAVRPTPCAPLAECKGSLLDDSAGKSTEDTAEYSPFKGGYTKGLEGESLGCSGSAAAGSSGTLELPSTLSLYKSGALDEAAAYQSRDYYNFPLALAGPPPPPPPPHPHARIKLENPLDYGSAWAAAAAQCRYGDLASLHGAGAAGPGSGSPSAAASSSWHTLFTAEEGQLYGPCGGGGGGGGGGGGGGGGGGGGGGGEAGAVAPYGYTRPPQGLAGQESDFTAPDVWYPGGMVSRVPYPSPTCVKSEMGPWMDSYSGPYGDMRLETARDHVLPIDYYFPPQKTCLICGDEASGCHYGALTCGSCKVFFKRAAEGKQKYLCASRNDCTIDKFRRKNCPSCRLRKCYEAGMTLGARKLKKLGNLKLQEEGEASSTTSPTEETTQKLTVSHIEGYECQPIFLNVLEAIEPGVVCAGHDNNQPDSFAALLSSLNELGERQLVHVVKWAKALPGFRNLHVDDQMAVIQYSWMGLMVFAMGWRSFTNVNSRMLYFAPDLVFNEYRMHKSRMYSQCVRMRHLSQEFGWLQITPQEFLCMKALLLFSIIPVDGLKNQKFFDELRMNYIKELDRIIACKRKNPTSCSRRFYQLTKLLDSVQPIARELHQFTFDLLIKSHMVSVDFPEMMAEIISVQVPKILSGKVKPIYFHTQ
assayExplanation: Agonist activity at androgen receptor in human MDA-KB2 cells transfected with MMTV linked luciferase assessed as transcriptional activation by luciferase reporter gene assay
quantityMeasured: EC50 (nM)
Only the number, expressed in nM, is required.

Inquiry: Which EC50 is listed for Cc1c(N2[C@@H]3CC[C@H]2C[C@@](C)(O)C3)ccc(C#N)c1Cl ?
Reply text: 0.251

----------
Quick list: CL per entry.
System: Liver microsomes
assayExplanation: Metabolic stability in rat liver microsomes assessed as intrinsic clearance
Format: ADME, Microsome
Numeric answer only, unit uL/ml.millig assumed.

Answered examples (4):
>  <molecule>
N#Cc1ccc(N2[C@@H]3CC[C@@H]2CC(=O)C3)c2ccccc12

>  <valueUnits>
uL/ml.millig

>  <CL>
189

$$$$
>  <molecule>
N#Cc1ccc(N2[C@@H]3CC[C@H]2C[C@](O)(CO)C3)c2ccccc12

>  <valueUnits>
uL/ml.millig

>  <CL>
35

$$$$
>  <molecule>
C[C@]1(O)C[C@H]2CC[C@@H](C1)N2c1ccc(C#N)c2ccccc12

>  <valueUnits>
uL/ml.millig

>  <CL>
95

$$$$
>  <molecule>
N#Cc1ccc(N2[C@@H]3CC[C@H]2C[C@@H](O)C3)c2ccccc12 (stereo in doubt; 2)

>  <valueUnits>
uL/ml.millig

>  <CL>
148

$$$$

Inquiry: Looking for the measured CL of C#C[C@]1(O)C[C@H]2CC[C@@H](C1)N2c1ccc(C#N)c2ccccc12 , can you help?
Reply text: 97

Inquiry: Which value of CL has been reported for N#Cc1ccc(N2CCCC2)c2ccccc12 in the records?
Reply text: 1177

Inquiry: Quick one: CL of Cc1c(N2[C@@H]3CC[C@H]2C[C@@](C)(O)C3)ccc(C#N)c1Cl ?
Reply text: 72

----------
assayExplanation: Cmax in Beagle dog at 10 mg/kg, po
Assay type: ADME, organism-based, Canis lupus familiaris
Design: dose 10 mg/kg, route oral
runConditions: in vivo
quantityMeasured: Cmax (ng/mL)
// units = ng/mL; emit number, no label

Inquiry: Param item = Cc1c(N2[C@@H]3CC[C@H]2C[C@@](C)(O)C3)ccc(C#N)c1Cl ; retrieve measured Cmax.
Reply text: 835

----------
assayExplanation: Plasma concentration in Beagle dog at 1 mg/kg, iv after 2 hrs
Assay type: ADME, organism-based, Canis lupus familiaris
Parameters: dose 1 mg/kg, route intravenous
quantityMeasured: concentration at 2 h (ng/mL)
Numeric answer only, unit ng/mL assumed.

Inquiry: Looking for the measured concentration at 2 h of Cc1c(N2[C@@H]3CC[C@H]2C[C@@](C)(O)C3)ccc(C#N)c1Cl , can you help?
Reply text: 49.5

----------
assayExplanation: Plasma concentration in Sprague-Dawley rat at 1 mg/kg, iv after 30 mins
Type: ADME, organism-based
Set-up: dose 1 mg/kg, route intravenous
quantityMeasured: concentration at 0.5 h (ng/mL)
Hi! Could you send only the number? It should be in ng/mL, unit omitted.

Inquiry: Give the measured concentration at 0.5 h of Cc1c(N2[C@@H]3CC[C@H]2C[C@@](C)(O)C3)ccc(C#N)c1Cl .
Reply text: 234

----------
assayExplanation: Cmax in Beagle dog at 1 mg/kg, iv
Type: ADME, organism-based, Canis lupus familiaris
Set-up: dose 1 mg/kg, route intravenous
runConditions: in vivo
quantityMeasured: Cmax (ng/mL)
Record the value in ng/mL, omitting the unit from your answer.

Inquiry: Given the molecule Cc1c(N2[C@@H]3CC[C@H]2C[C@@](C)(O)C3)ccc(C#N)c1Cl , what is its reported Cmax?
Reply text: 357
